Assay: Human HepG2 cell viability assay in 384 well format
Type: toxicity, cell-based
Set-up: dose 125 nL, time 70.5 hour; concentration not given beside the values
Settings: HepG2 cells, read-out: Inhibition
// cytotoxicity at 70.5 h lookup, one value per entry

- compound: "O=C(CC1CC1)N1Cc2nccn2CC(CN2CCCC2)C1 (stereo unspecified)"
  unitAnnotation: "%"
  cytotoxicity at 70.5 h: 16.9
- compound: "Cc1ccccc1OCCCC(=O)N(C)CCC#N"
  unitAnnotation: "%"
  cytotoxicity at 70.5 h: -5.57
- compound: "O=C(O)[C@@H]1CN(CC(=O)N2CCCCC2)C[C@H]1c1ccc(F)cc1"
  unitAnnotation: "%"
  cytotoxicity at 70.5 h: -2.52
- compound: "O=C(C1=CC2(CCN(CCO)CC2)c2ccccc21)N1CCCC1"
  unitAnnotation: "%"
  cytotoxicity at 70.5 h: -4.5
- compound: "N[C@@H]1CCCN(C(=O)Cc2c[nH]c3ccccc23)[C@H]1c1ccccc1F"
  unitAnnotation: "%"
  cytotoxicity at 70.5 h: 23.2
- compound: "CC(=O)c1c(F)cccc1NCC(O)c1ccc(F)c(F)c1 (stereo unspecified)"
  unitAnnotation: "%"
  cytotoxicity at 70.5 h: -12.6
